- Experimental Target: UniProtKB P35968
- Sequence (P35968 20-1356): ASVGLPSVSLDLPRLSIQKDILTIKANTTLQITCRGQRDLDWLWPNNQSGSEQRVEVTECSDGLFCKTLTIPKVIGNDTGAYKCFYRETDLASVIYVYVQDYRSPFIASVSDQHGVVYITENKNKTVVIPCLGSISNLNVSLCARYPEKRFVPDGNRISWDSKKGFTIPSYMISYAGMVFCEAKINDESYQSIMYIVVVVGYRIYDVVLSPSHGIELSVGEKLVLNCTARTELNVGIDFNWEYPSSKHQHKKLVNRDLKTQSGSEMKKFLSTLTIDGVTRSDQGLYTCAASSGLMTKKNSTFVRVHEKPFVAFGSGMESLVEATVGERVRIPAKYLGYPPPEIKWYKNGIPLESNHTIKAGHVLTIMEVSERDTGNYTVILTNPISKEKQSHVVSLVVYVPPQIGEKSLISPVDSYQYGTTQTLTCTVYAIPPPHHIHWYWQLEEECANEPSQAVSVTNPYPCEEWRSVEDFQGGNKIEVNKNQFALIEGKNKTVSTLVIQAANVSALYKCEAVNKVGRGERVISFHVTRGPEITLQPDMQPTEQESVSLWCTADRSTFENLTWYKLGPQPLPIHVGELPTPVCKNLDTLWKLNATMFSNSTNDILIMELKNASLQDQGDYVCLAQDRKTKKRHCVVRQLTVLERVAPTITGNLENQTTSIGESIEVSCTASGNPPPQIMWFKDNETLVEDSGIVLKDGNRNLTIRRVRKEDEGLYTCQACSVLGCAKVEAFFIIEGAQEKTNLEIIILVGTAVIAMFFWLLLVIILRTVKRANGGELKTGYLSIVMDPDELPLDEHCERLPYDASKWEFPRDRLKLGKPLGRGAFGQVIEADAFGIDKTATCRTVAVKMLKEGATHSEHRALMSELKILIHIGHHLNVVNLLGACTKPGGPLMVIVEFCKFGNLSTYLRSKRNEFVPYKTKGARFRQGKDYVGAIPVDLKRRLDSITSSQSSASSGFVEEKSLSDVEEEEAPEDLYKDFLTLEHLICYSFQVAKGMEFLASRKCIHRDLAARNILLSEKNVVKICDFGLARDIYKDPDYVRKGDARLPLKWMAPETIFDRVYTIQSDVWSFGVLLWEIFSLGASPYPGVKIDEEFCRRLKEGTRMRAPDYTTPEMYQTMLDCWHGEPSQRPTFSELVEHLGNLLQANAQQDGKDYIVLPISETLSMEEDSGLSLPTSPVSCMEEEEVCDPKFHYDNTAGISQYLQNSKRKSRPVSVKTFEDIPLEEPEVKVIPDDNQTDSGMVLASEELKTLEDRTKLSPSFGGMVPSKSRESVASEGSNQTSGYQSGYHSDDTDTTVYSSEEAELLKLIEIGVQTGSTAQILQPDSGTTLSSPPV
- Experimental Details: VEGF Stimulated Ca++ Signal In Vitro (Cellular VEGFR2, FLIPR)
- Condition Label: HUVEC, VEGF stimulation (5 ng/mL), intracellular calcium
pIC50: −log10 of the molar value.
Readout Type: pIC50

See these solved cases before continuing.
The measured pIC50 associated with CCN(CC)CCNC(=O)c1cc2nccc(Oc3ccc(NC(=O)Nc4cc(C)ccc4F)cc3)c2s1 reads 7.96

Noted for CCN(CC)C(=O)c1cc2nccc(Oc3cccc(C(=O)Nc4cc(C)ccc4F)c3)c2s1 : its pIC50 reads 7.19

Sure, the documented pIC50 for Cc1ccc(F)c(NC(=O)Nc2ccc(Oc3ccnc4cc(C(=O)NCCCN5CCCC5)sc34)cc2)c1 is 7.70

The value of pIC50 measured for the compound Cc1ccc(F)c(NC(=O)Nc2ccc(Oc3ccnc4cc(C(=O)NCCCc5nn[nH]n5)sc34)cc2)c1 turned out to be 6.90

Recorded pIC50 (compound COC(=O)CN(CCCNC(=O)c1cc2nccc(Oc3ccc(NC(=O)Nc4cc(C)ccc4F)cc3)c2s1)CC(=O)OC ): 9.52

Value of measured pIC50 for the entry CCOC(=O)CN1CCN(CCCNC(=O)c2cc3nccc(Oc4ccc(NC(=O)Nc5cc(C)ccc5F)cc4)c3s2)CC1 : 7.47

a. Cc1ccoc1C(=O)Nc1cccc(Oc2ccnc3cc(C(=O)O)sc23)c1
b. COC(=O)CNCCCNC(=O)c1cc2nccc(Oc3ccc(NC(=O)Nc4cc(C)ccc4F)cc3)c2s1
Param metric = pIC50; output whichever of a , b has the minimum value. To answer, give the label that identifies your chosen option.
a
(a: 6.79, b: 9.10)
